FYI, the data here is from PubChem BioAssay AID2060906.

- Tested on: 485176-168-R4-J1-PDC complex spheroid growth
- Method Summary: Anticancer human tumor 485176-168-R4-J1-PDC patient-derived pancreatic adenocarcinoma cell line growth inhibition [RAS]
- Measurement Parameters: second compound 0.0316 µM; first compound 3.16 µM; active compounds read low
// boundary case: viability, T/C equal to 60% maps to criterion not met; strictly smaller maps to criterion met

{"Compound": "CCC(CC)c1cc(NC2CCC(N)C2)n2nccc2n1 (stereo not given) + C#Cc1c(F)ccc2cc(O)cc(-c3ncc4c(N5CC6CCC(C5)N6)nc(OCC56CCCN5CC(F)C6)nc4c3F)c12", "Assigned Category": "criterion met"}
{"Compound": "C[C@@H](NC(=O)c1ncnc(N)c1Cl)c1ncc(C(=O)Nc2cc(C(F)(F)F)c(Cl)cn2)s1 + C=CC(=O)N1CCN(c2nc(OCC3CCCN3C)nc3c(F)c(-c4nc(N)cc(C)c4C(F)(F)F)c(Cl)cc23)C(C)C1", "Assigned Category": "criterion not met"}
{"Compound": "Cc1nc(N2CCC3(CC2)COC(C)C3N)c(CO)nc1Sc1ccnc(N)c1Cl (stereo not given) + C#Cc1c(F)ccc2cc(O)cc(-c3ncc4c(N5CC6CCC(C5)N6)nc(OCC56CCCN5CC(F)C6)nc4c3F)c12", "Assigned Category": "criterion not met"}
{"Compound": "CC1(O)CCCC1n1c(=O)c(C(F)F)cc2cnc(NC3CCN(S(C)(=O)=O)CC3)nc21 (stereo not given) + C=CC(=O)N1CCN(c2nc(OCC3CCCN3C)nc3c(F)c(-c4nc(N)cc(C)c4C(F)(F)F)c(Cl)cc23)C(C)C1", "Assigned Category": "criterion met"}
{"Compound": "CC(Nc1ccc2c(c1)OCCn1cc(N3C(=O)OCC3C(F)F)nc1-2)C(N)=O (stereo not given) + C=CC(=O)N1CCN(c2nc(OCC3CCCN3C)nc3c(F)c(-c4nc(N)cc(C)c4C(F)(F)F)c(Cl)cc23)C(C)C1", "Assigned Category": "criterion not met"}

###

Listed compounds paired with reported viability, T/C
- Test system: 485176-168-R4-J1-PDC complex spheroid growth
- Method Summary: Anticancer human tumor 485176-168-R4-J1-PDC cell line growth inhibition [RAS];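 note: spheroids exposed to compounds for seven days before readout; luminescence viability expressed relative to DMSO vehicle wells set as 100%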
- Measurement Parameters: second compound 1 µM; first compound 0.0316 µM; active compounds read low

{"Compound": "CC1(O)CCCC1n1c(=O)c(C(F)F)cc2cnc(NC3CCN(S(C)(=O)=O)CC3)nc21 (centres undefined) + C#Cc1c(F)ccc2cc(O)cc(-c3ncc4c(N5CC6CCC(C5)N6)nc(OCC56CCCN5CC(F)C6)nc4c3F)c12", "viability, T/C [%]": 91.5}
{"Compound": "NC1c2ccccc2OC12CCN(c1cnc3c(N4CCCc5ncccc54)n[nH]c3n1)CC2 (centres undefined) + C=CC(=O)N1CCN(c2nc(OCC3CCCN3C)nc3c(F)c(-c4nc(N)cc(C)c4C(F)(F)F)c(Cl)cc23)C(C)C1", "viability, T/C [%]": 91.5}
{"Compound": "CCN1CCN(Cc2ccc(Nc3ncc(F)c(-c4cc(F)c5nc(C)n(C(C)C)c5c4)n3)nc2)CC1 + C#Cc1c(F)ccc2cc(O)cc(-c3ncc4c(N5CC6CCC(C5)N6)nc(OCC56CCCN5CC(F)C6)nc4c3F)c12", "viability, T/C [%]": 101}
{"Compound": "CC(=O)OC12COC1CC(O)C1(C)C(=O)C(O)C3=C(C)C(OC(=O)C(O)C(NC(=O)OC(C)(C)C)c4ccccc4)CC(O)(C(OC(=O)c4ccccc4)C21)C3(C)C (centres undefined) + C#Cc1c(F)ccc2cc(O)cc(-c3ncc4c(N5CC6CCC(C5)N6)nc(OCC56CCCN5CC(F)C6)nc4c3F)c12", "viability, T/C [%]": 17}
